Molecular target: T1, O15-bN
T1 chain: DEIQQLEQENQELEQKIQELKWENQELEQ
Test: two-hybrid library CCNG1;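 note: natural log of median RNA to DNA barcode read ratio; higher means stronger binding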
Outcome label depends on interaction score relative to -0.5: at/above gives Condition met, below gives Condition not met.

Study these solved cases before continuing.
binder: DKIQQLKQEIQELEQENQELEWENQELEQ [O11-bN]
label-value: Condition not met
--
binder: DKNQQLKQENQELEQKIQELKWKIQELKQ [O10-bN]
label-value: Condition met
--
binder: DKNAQLEQKIAELKQKIAELEWENAQLEQ [4H3427-bA]
label-value: Condition met
--
binder: DEIQQLEQENQELEQKIQELKWENQELEQ [O15-bN]
label-value: Condition met
--
binder: DENQQLEQEIQELEQENQELEWKIQELKQ [O14-bN]
label-value: Condition met

// query Identify whether the reported interaction score of the following binder is -0.5 or greater: DKNQQLKQKIQELKQKNQELKWEIQELEQ [O13-bN]
// result Condition not met

// query Identify whether the reported interaction score of the following binder is -0.5 or greater: DKNQQLKQENQELEQEIQELEWEIQELEQ [O1-bN]
// result Condition not met
